// data source = the supplement of paper PMC6555819

# Tested on: PPARg:RXRa 30nM:10nM, anti-RXR (NR concentration 30 nM, RXRa partner concentration 10 nM)
# assayRemarks: PBM binding z-score (relative to random genomic background probes); higher = stronger binding; sequences stand for … in GC…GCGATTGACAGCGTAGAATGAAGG
The recorded PBM binding z-score of each item maps onto one of these classes: bottom (below 0.3), middle (0.3 to below 2), top (2 or more)

> print(dat)
                         residuestring  classlabel
 1  ACTTACGGATCAACGAGGTTATAGCACGCGTATA      middle
 2  ACTCGGAGGACAAAGGACAGAGCTACGCCAGTGA      bottom
 3  CAAACTAGGTCACCGGAAGGTCAATGTCCGCATG         top
 4  TCTGCTAGGTCAATGATGGTCAGCTAATCTGCTA      middle
 5  AGAACGAGGGCATTGAGTTGATAGCACGGGTGGC      bottom
 6  TCTTGTAGATCAACAGGTGGTTAAGAAAGATCGA         top
 7  TCAAGCAGGCCAGAGGGTCACTCAAGAGGTACGG         top
 8  ACTAGTTGGTGAGCTGAGGTCACACACAATTCGG      middle
 9  GATACAGGGTCAGCTAGAGGACAGAGTATGGAAA      middle
10  TAGCCCAGGTCATTCAGGGGCCAGTATAGAAAGC      middle
11  AGAATGAGGTTACCAAAGATCAGAGAAACGCTTG      middle
12  ACTATTAGTTGAGTCGAGGGCAACCGATAGGTTG      bottom
13  GCTTGTAGATCAAGGGTAAGAAAGACTAAGCTAA      middle
14  TTGCCAAGGTGAAGGTCGTTGATCCCTCTGTAGA      bottom
15  CTCGAAAGGTCGTGCTCAGGTGAGTAGACCAAAC      middle
16  TCTAGTTGGTCACGGAGGTCACACCCGACGGGTA         top
17  ATCTCTAGGTAAAAGTTCAGTGTATCCCGAGGAT         top
18  CAAATTAGGTCAAGGTCAAAGTCGGTTTGTGCCA         top
19  TGTCAAAATTCAAAGGTAACGTAAGTATCCACAC      middle
20  TTACCAAGGTGAAGGGTCGTTGATGCACGCCTTG         top
21  CCTACTGCGCCAAGGTCATTGATCAGTCAAAGCA      bottom
22  GCGATTGGGGCAAAGCAGGTTACCATAAGGTTGG      bottom
23  TCATATAGGTAAACAGGTGAGAGTCCGTAAGTTA         top
24  CTCGAAAGGTCGTGCTCAGGTAAGTATACCAAAC      middle
25  CAGCCTAGCTCAGGGCCAGTATAGGAGGAACGTT      bottom
26  ACTGACAGGTGAGTGAAGGTAACTCAGCTGGACG      bottom
